- Test system: MRSP (Methicillin-Resistant Staphylococcus pseudintermedius)
- protocol.details: MIC against selected strains of MRSP
- Assay type: cell-based
- Parameters: unit not given beside the values
- reported.conditions: strain 87655, Table 4
- Procedure: Peptides according to SEQ ID NOs as listed in Table 1 were prepared by a commercial manufacturer (CS Bio, Menlo Park, Calif.) using solid phase synthesis. Antimicrobial activity was assessed by determining the Minimal Inhibitory Concentration (MIC) against S. aureus and E. coli. Briefly, Microbroth MICs were performed using CLSI methodology (VET01-S2). […] The MIC was determined visually at the first well of no visible growth at the corresponding concentration. […]

>  <substance>
96 (KWCFRVCYGRICYRRCRD; Artificial Antimicrobial peptide) [compound 96]

>  <target.of.assay>
MRSP (Methicillin-Resistant Staphylococcus pseudintermedius)

>  <MIC MRSP 87655>
1.6

$$$$
>  <substance>
6 (KWCFRVCRRGICYRRCRD; Artificial Antimicrobial peptide) [compound 6]

>  <target.of.assay>
MRSP (Methicillin-Resistant Staphylococcus pseudintermedius)

>  <MIC MRSP 87655>
3.1

$$$$
>  <substance>
11 (KWCFRVCYRGICYRRCND; Artificial Antimicrobial peptide) [compound 11]

>  <target.of.assay>
MRSP (Methicillin-Resistant Staphylococcus pseudintermedius)

>  <MIC MRSP 87655>
0.8

$$$$
>  <substance>
3 (GWCFRVCYRGICYRRCRD; Artificial Antimicrobial peptide) [compound 3]

>  <target.of.assay>
MRSP (Methicillin-Resistant Staphylococcus pseudintermedius)

>  <MIC MRSP 87655>
1.6

$$$$
